# assay-method-text: protease stability score; higher = more stable; yeast display proteolysis, trypsin and chymotrypsin;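 further: relative to predicted unfolded state with 0 unfolded-like and 1 meaning tenfold more protease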
readout-kind: protease stability score

[[record]]
record_sequence = "SEDEEELNRVLKELLHAMVTGNEELWSRLVDPNYRVTVGDFRLHGMEEYSRILHEWRVEIREFRITSRTTVDGRIFIDAHFTEEIKQGDKVTFVNTRIRLIMIKVDGRWHVESREIR"
readout_kind = "protease stability score"
recorded_value = 0.484

[[record]]
record_sequence = "DEDERSAKHYLDLWHHALETGDEHEEERLLDPHVKVDIGDKTSHGRENTRDIIRRLLEELGADVLEFHIRHVNVVNGRVHLDGELVIKVGDYTLRSRTRLLVLKVNGRWFIERIKIE"
readout_kind = "protease stability score"
recorded_value = 1.09

[[record]]
record_sequence = "SESHDLLEEFVRLILHLWRTGDEEILHNMADPNTQMHIGDKTYHGREEAVDVIHKLLKHLRFKHLHIDHIDIQGDWVRITGHLHVKVDGREIQREVSSVVIKINGRWILRSERID"
readout_kind = "protease stability score"
recorded_value = 2.27


* * *

# assay-method-text: protease stability score; higher = more stable; yeast display proteolysis, trypsin and chymotrypsin;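 further: relative to predicted unfolded state with 0 unfolded-like and 1 meaning tenfold more protease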
readout-kind: protease stability score

[[record]]
record_sequence = "SEEEEFVELAVRLFLETMRTGDEKDINRLADPHTRNIVNGRDIIGREELTRQLHEILHFFKNVQVHIEEVRWQGNYIVLKILWNFDGQTMEVHVYARKIDGRWVETEFEFR"
recorded_value = 2.08

[[record]]
record_sequence = "DESAVNNLVRLAKAWLRGDPKKIEHLVDKDAKAQIGDKTLHGREDLKDHADELRKDMTVDVKSVTNNNQNGQAVVDVKFEADRNGRPETHTLDAKATAHNGDIVDVKIHQDG"
recorded_value = -0.049

[[record]]
record_sequence = "DEHEEEAHKFVELKRRIWKTGDERLKSELADPNVKITFNGKELHGMEELIKVNREMGIKHVQIEDIDFQGNKVMVFGRSNIGDFNNRVEIIAEKYNGKWSLSEVRIH"
recorded_value = 0.322

[[record]]
record_sequence = "DELEKIVEDFLRVLLEHLHTGNWEYLKEYFDPDVRIKIGDKELHGREDFVRRLREWLSRIKNATFEIEVDDNKVQGDKAILHTKVIIRVGDKLIELKTHIIVNKINGVWMVRSQSVE"
recorded_value = 1.46

[[record]]
record_sequence = "DEDRKEAERIARQTLHDLRTGNEDMLTKLLDPHARIDVNGVDNIGWEIIVKHVKERRHQWRIHHEHWRDYHFINGVIHIDLEVHIRVDGVDIRTETRVHILIINGRLREIRVEVD"
recorded_value = 0.772

[[record]]
record_sequence = "KEEEEFAKHILHMLRYLWETGDEEEFERMADPNARLIQGDKHFHGREEITKSVKELRVRHFEEKHIHYQGEKSLIIGHVDGEINGQRHEIDVIIRLEVVNGKLKRIRIEYR"
recorded_value = 0.239

[[record]]
record_sequence = "SEEEEFARQMMEHFLKNFITGNEELFKENLDPDVRIIIVVNGREFENVGREHFWHHFRRSFEELGVKHLHLKDIRVINGRLFLFAEIEIGDKRVELHFLVLKVDGKWVIEELHIKFL"
recorded_value = 2.32

[[record]]
record_sequence = "DEIDHRAREVAERILKSMLTGDFDTLRELMDPHVRVILSVNGRENHTVGREWFAHVVKEWIDRVDVHQIDVERVELQGEKVHMDTNLRIHYGDKSITRKTEIIIDVVDGRVHYVRFIIR"
recorded_value = 2.52

[[record]]
record_sequence = "SEETEETERVEREISHARLTGDEQFLKEMLDPNTRLLINGVILVGREALEHFVREMRVERVEVKDVRVQGDKLHIDTTSDVHYNGRRWTIKTHLIMVKVDGRWLMESVEFK"
recorded_value = 1.62

[[record]]
record_sequence = "SEKEEDITRFITMWARYLVTGDEDRSRELLDPSVKMHIGEKNLIGREKLLEFVHRMWRRVDHIHIHFHTIDIQGDKLKVDFEIELRQGDKSDSIRTSMIVDKVDGRWILHKITME"
recorded_value = 1.74

[[record]]
record_sequence = "TEDQEEAKRLLHHLAHNWFTGNEHILTRLADPNTRMNVNGRDYHGREIMHETVREILERLGIDHFEIKDMRFIVQGEKIHIHIHIRSTVNGQEEDFRLSISVHKIDGRWVIKEINLHFI"
recorded_value = 0.511

